Quantity name: melting point

[[record]]
molecule = "O=C(O)/C=C/C(=O)O.c1ccc2c(OC3CN4CCC3CC4)nsc2c1 (racemic)"
recorded_value = "172.3 to 173.6 °C"

[[record]]
molecule = "O=C(O)/C=C/C(=O)O.c1cc(-c2cnc(OC3CN4CCC3CC4)s2)co1 (racemic)"
recorded_value = "127.6 to 136.2 °C"

[[record]]
molecule = "O=C(O)/C=C/C(=O)O.c1ccc2nc(OC3CN4CCC3CC4)cnc2c1 (racemic)"
recorded_value = "127.7 to 128.5 °C"

[[record]]
molecule = "O=C(O)/C=C/C(=O)O.c1cc2c(cc1OC1CN3CCC1CC3)CCC2 (racemic)"
recorded_value = "149.3 to 150.5 °C"

[[record]]
molecule = "O=C(O)/C=C/C(=O)O.c1csc(-c2ccc(OC3CN4CCC3CC4)nn2)c1 (racemic)"
recorded_value = "180.3 to 191.1 °C"

[[record]]
molecule = "O=C(O)/C=C/C(=O)O.c1cc(-c2ccc(OC3CN4CCC3CC4)nn2)cs1 (racemic)"
recorded_value = "197.9 °C"

[[record]]
molecule = "COc1nc2ccccc2nc1OC1CN2CCC1CC2.O=C(O)/C=C/C(=O)O (racemic)"
recorded_value = "168.5 to 170 °C"

[[record]]
molecule = "O=C(O)/C=C/C(=O)O.c1coc(-c2ccc(OC3CN4CCC3CC4)nn2)c1 (racemic)"
recorded_value = "175.8 to 178.2 °C"

[[record]]
molecule = "Clc1nc2ccccc2nc1OC1CN2CCC1CC2.O=C(O)/C=C/C(=O)O (racemic)"
recorded_value = "120.8 to 122.1 °C"

[[record]]
molecule = "O=C(O)/C=C/C(=O)O.c1ccc(-c2cnc(OC3CN4CCC3CC4)s2)cc1 (racemic) [Compound D1]"
recorded_value = "170.9 to 172.2 °C"

[[record]]
molecule = "O=C(O)/C=C/C(=O)O.c1cc2c(cc1OC1CN3CCC1CC3)CCCC2 (racemic)"
recorded_value = "109.7 to 111.3 °C"

[[record]]
molecule = "Clc1ccc2nc(OC3CN4CCC3CC4)sc2c1.O=C(O)/C=C/C(=O)O (racemic)"
recorded_value = "203 to 205 °C"

[[record]]
molecule = "O=C(O)/C=C/C(=O)O.c1cc(-c2ccc(OC3CN4CCC3CC4)nn2)co1 (racemic)"
recorded_value = "224.8 to 225.4 °C"

[[record]]
molecule = "O=C(O)/C=C/C(=O)O.c1ccc2oc(OC3CN4CCC3CC4)nc2c1 (racemic)"
recorded_value = "187.2 to 188.8 °C"

[[record]]
molecule = "C.I.c1ccc2nc(OC3CN4CCC3CC4)cnc2c1 (racemic)"
recorded_value = "229 to 230 °C"

[[record]]
molecule = "O=C(O)/C=C/C(=O)O.c1cc(-c2cnc(OC3CN4CCC3CC4)s2)cs1 (racemic)"
recorded_value = "68.5 to 74.3 °C"

[[record]]
molecule = "O=C(O)/C=C/C(=O)O.c1ccc2nc(OC3CN4CCC3CC4)ccc2c1 (racemic)"
recorded_value = "160 to 160.5 °C"

[[record]]
molecule = "Clc1ccc(OC2CN3CCC2CC3)nn1.O=C(O)/C=C/C(=O)O (racemic)"
recorded_value = "164 to 164.5 °C"

[[record]]
molecule = "O=C(O)/C=C/C(=O)O.c1csc(-c2cnc(OC3CN4CCC3CC4)s2)c1 (racemic)"
recorded_value = "152.6 to 154.9 °C"

[[record]]
molecule = "O=C(O)/C=C/C(=O)O.c1cncc(-c2ccc(OC3CN4CCC3CC4)nn2)c1 (racemic)"
recorded_value = "137.2 to 143.2 °C"

[[record]]
molecule = "O=C(O)/C=C/C(=O)O.c1ccc(-c2nnc(OC3CN4CCC3CC4)s2)cc1 (racemic)"
recorded_value = "168.5 to 172 °C"

[[record]]
molecule = "O=C(O)/C=C/C(=O)O.c1ccc2sc(OC3CN4CCC3CC4)nc2c1 (racemic)"
recorded_value = "173.7 to 174.2 °C"

[[record]]
molecule = "C.I.c1ccc2c(OC3CN4CCC3CC4)nsc2c1 (racemic)"
recorded_value = "180.1 to 186.4 °C"

[[record]]
molecule = "O=C(O)/C=C/C(=O)O.c1cc(-c2nnc(OC3CN4CCC3CC4)s2)cs1 (racemic)"
recorded_value = "186 to 188 °C"

[[record]]
molecule = "O=C(O)/C=C/C(=O)O.c1ccc(-c2ccc(OC3CN4CCC3CC4)nn2)cc1 (racemic)"
recorded_value = "168.5 to 172 °C"

[[record]]
molecule = "O=C(O)/C=C/C(=O)O.c1ccc2cc(OC3CN4CCC3CC4)ccc2c1 (racemic)"
recorded_value = "140.9 to 141.6 °C"

[[record]]
molecule = "O=C(O)/C=C/C(=O)O.c1cncc(-c2cnc(OC3CN4CCC3CC4)s2)c1 (racemic)"
recorded_value = "82.7 to 86 °C"

[[record]]
molecule = "O=C(O)/C=C/C(=O)O.c1ccc(-c2ccc(OC3CN4CCC3CC4)cc2)cc1 (racemic)"
recorded_value = "173.5 to 185.1 °C"

[[record]]
molecule = "Cn1c(OC2CN3CCC2CC3)nc2ccccc21.O=C(O)/C=C/C(=O)O (racemic)"
recorded_value = "184.9 to 185.9 °C"

[[record]]
molecule = "Brc1ccc(OC2CN3CCC2CC3)nn1.O=C(O)/C=C/C(=O)O (racemic)"
recorded_value = "152.8 °C"

[[record]]
molecule = "Fc1ccc(-c2cnc(OC3CN4CCC3CC4)s2)c(F)c1.O=C(O)/C=C/C(=O)O (racemic)"
recorded_value = "84.3 to 86.3 °C"

[[record]]
molecule = "Brc1cnc(OC2CN3CCC2CC3)s1.O=C(O)/C=C/C(=O)O (racemic)"
recorded_value = "157.8 to 162.1 °C"

[[record]]
molecule = "O=C(O)/C=C/C(=O)O.c1cnc2ccc(OC3CN4CCC3CC4)cc2c1 (racemic)"
recorded_value = "146 to 147 °C"

[[record]]
molecule = "O=C(O)/C=C/C(=O)O.c1ccc(-c2ccccc2OC2CN3CCC2CC3)cc1 (racemic)"
recorded_value = "125.4 °C"

[[record]]
molecule = "C.I.c1ccc2nc(OC3CN4CCC3CC4)ccc2c1 (racemic)"
recorded_value = "156.6 to 175.2 °C"

